- Experimental Target: T1, Taq DNA polymerase (Thermus aquaticus, UniProt P19821 1-832)
- T1 construct: also called Taq enzyme; Taq DNA enzyme
- T1 sequence (P19821 whole entry): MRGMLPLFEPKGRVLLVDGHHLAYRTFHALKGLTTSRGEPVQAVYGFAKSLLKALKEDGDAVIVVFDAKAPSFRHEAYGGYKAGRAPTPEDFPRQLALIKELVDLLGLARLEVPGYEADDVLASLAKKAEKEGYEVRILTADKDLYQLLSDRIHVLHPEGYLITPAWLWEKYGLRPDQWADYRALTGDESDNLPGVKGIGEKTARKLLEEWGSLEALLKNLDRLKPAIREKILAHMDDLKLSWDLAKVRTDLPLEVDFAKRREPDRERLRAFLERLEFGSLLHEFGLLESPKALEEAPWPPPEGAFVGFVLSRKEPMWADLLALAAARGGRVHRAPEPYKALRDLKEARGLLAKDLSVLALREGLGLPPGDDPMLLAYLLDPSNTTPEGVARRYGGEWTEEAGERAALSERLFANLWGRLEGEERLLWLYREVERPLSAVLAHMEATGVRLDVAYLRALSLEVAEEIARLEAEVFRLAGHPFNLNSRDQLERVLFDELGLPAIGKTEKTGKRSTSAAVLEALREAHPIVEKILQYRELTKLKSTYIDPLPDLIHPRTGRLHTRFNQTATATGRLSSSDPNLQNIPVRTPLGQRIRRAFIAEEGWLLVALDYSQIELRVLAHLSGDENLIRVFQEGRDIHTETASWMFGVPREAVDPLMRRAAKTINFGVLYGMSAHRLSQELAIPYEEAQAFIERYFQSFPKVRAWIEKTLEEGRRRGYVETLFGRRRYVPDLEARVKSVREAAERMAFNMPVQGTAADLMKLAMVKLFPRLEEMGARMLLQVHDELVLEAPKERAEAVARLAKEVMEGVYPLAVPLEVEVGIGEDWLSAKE
- Run Description: AMC sensor, antibody immobilised
Value Kind: kon (M⁻¹ s⁻¹)
Reply numerically in M⁻¹ s⁻¹, unit not repeated.

| Binder | Measurement Units | kon |
| --- | --- | --- |
| Mutation 1-45 (antibody, V domains shown, Mutation 1 background; CDRs built) VH: QVQLQQPGAELVKPGASVRLSCQTSVNTFTTYYIYWVKQRPGEGLEWIGGINPTSGGPVFNEKFKSKATLTVDTSSSTAYMQLSSLTSVDSAVYYCTRSILRRGYYFDYWGQGTALTVSS VL: DIQMTQTTSSLSASLGDRVTISCRASQDINNYLNWYQQKPDGTIKLLIYYTSRLNSGVPSRFSGSGSGTDYSLTIANLEQEDIATYFCQQDDTIPLTFGAGTKVELKR | M⁻¹ s⁻¹ | 52600 |
| Mutation 1-32 (antibody, V domains shown, Mutation 1 background; CDRs built) VH: QVQLQQPGAELVKPGASVRLSCQTSVDTFSTYYIYWVKQRPGEGLEWIGGVNPTSGGPVFNEKFKSKATLTVDTSSSTAYMQLSSLTSVDSAVYYCTRSVIRRGYYFDYWGQGTALTVSS VL: DIQMTQTTSSLSASLGDRVTISCRASQDIQNYLNWYQQKPDGTIKLLIYYTSRLNSGVPSRFSGSGSGTDYSLTIANLEQEDIATYFCQQDDTVPVTFGAGTKVELKR | M⁻¹ s⁻¹ | 31300 |

Next binder, kon to be filled in.
Q: Reported kon, binder Mutation 1-11 (antibody, V domains shown, Mutation 1 background; CDRs built) VH: QVQLQQPGAELVKPGASVRLSCQTSVNTFTTYYIYWVKQRPGEGLEWIGGLNPTSGGPVFNEKFKSKATLTVDTSSSTAYMQLSSLTSVDSAVYYCTRSIIRRGYYFDYWGQGTALTVSS VL: DIQMTQTTSSLSASLGDRVTISCRASQDINNYINWYQQKPDGTIKLLIYYTSRLQSGLPSRFSGSGSGTDYSLTIANLEQEDIATYFCQQDDTIPLTFGAGTKVELKR : ____
Result: 50000
